Assignment: determine reported Activity for the given molecules.
- Test system: Oryza sativa
- Protocol Description: Effect on Oryza sativa (rice) assessed as growth rate at 0.1 uM relative to control
- Format: organism-based
- Measurement Setup: in vivo
Give bare numbers, in %.

Consider the reported Activity for these molecules:
C[C@@H](NC(=O)Nc1cccc(I)c1)c1ccccc1 :: 81
CC(=O)c1ccc(NC(=O)N[C@@H](C)c2ccccc2)cc1 :: 99
CCCCCc1ccc(NC(=O)N[C@@H](C)c2ccccc2)cc1 :: 98
CCc1ccccc1NC(=O)N[C@H](C)c1ccccc1 :: 101
C[C@H](NC(=O)Nc1cccc(F)c1F)c1ccccc1 :: 100

Lab note: each molecule below needs its Activity filled in.
1. C[C@H](NC(=O)Nc1ccc(Cl)c(Cl)c1)c1ccccc1
2. C[C@@H](NC(=O)Nc1ccc(C(F)(F)F)cc1)c1ccccc1
3. CC(=O)c1cccc(NC(=O)N[C@H](C)c2ccccc2)c1

Response:
1. 98
2. 93
3. 98
